target: VA387 binding to the H antigen
protocolNotes: Saliva-based blocking EIA: VA387 VLP binding to H antigen
conditionParameters: VA387 VLP binding to H antigen saliva; read-out: EC50 rVA387 H
Experimental: A saliva based blocking assay offers several advantages for anti-Norovirus agent screening. First, the assay is a solid phase blocking assay which is simple and suitable for large scale screening. […] Baculovirus-expressed recombinant capsid proteins of four Norovirus strains representing four distinct receptor binding patterns were studied: Norovirus strains Norwalk, VA387, VA207, and MOH. […] The purity of VLPs used in this study was over 90% which was determined by SDS-PAGE analysis. […]
Decide using EC50 alone. Strictly below 40 µM: 1 (yes). Equal to or above 40 µM: 0 (no).

>  <compound>
CC(C)OC(=O)CC(=O)CSc1nc(-c2ccc(F)cc2)cc(-c2cccs2)c1C#N

>  <class>
1 (yes)

$$$$
>  <compound>
Cc1ccc(NC(=O)CC(c2ccccc2)c2ccccc2)cc1C

>  <class>
0 (no)

$$$$
>  <compound>
CCC[n+]1cc(-c2ccccc2)nc(N2CCOCC2)n1.[I-]

>  <class>
1 (yes)

$$$$
>  <compound>
CCOC(=O)C1=C(C)OC(N)=C(C#N)C1c1ccc(OCc2ccc(C)cc2)c([N+](=O)[O-])c1 (centres unmarked)

>  <class>
1 (yes)

$$$$

---

target: VA387 VLPs binding to the A antigen
protocolNotes: Saliva-based blocking EIA: VA387 VLP binding to type A saliva
conditionParameters: read-out: EC50 rVA387 A
pEC50: −log10 of the molar value.

>  <compound>
Cc1cc(O)c(Sc2c(O)cc(C)cc2C(C)(C)c2ccccc2)c(C(C)(C)c2ccccc2)c1

>  <pEC50>
4.87

$$$$
>  <compound>
CCOC(=O)C1=C(C)OC(N)=C(C#N)C1c1ccc(OCc2ccc(C)cc2)c([N+](=O)[O-])c1 (centres unmarked)

>  <pEC50>
5.32

$$$$
>  <compound>
O=C(/C=C/c1ccc(-c2cc(Cl)cc(Cl)c2)o1)c1cccs1

>  <pEC50>
4.96

$$$$
>  <compound>
FC(F)(F)c1ccc(N/N=C/c2cc(Br)cs2)cc1

>  <pEC50>
4.85

$$$$
>  <compound>
Oc1ccc(C=Nc2nccs2)c(O)c1

>  <pEC50>
5.02

$$$$

---

Reported pEC50 values for the following molecules.
target: VA387 VLPs binding to the A antigen
protocolNotes: Saliva-based blocking EIA: VA387 VLP binding to type A saliva
conditionParameters: read-out: EC50 rVA387 A
pEC50: −log10 of the molar value.

>  <molecule>
O=CC(=O)c1ccc2c(c1)Cc1cc(C(=O)C=O)ccc1-2 [Compound 6]

>  <pEC50>
5.03

$$$$
>  <molecule>
CCCCc1ccc(NC(=O)c2ccc(C)cc2)cc1 [Compound 12]

>  <pEC50>
4.89

$$$$
>  <molecule>
O=C(C(=O)c1ccc(C(=O)c2ccc(C(=O)C(=O)c3ccc(Sc4ccccc4)cc3)cc2)cc1)c1ccc(Sc2ccccc2)cc1 [Compound 11]

>  <pEC50>
4.89

$$$$
>  <molecule>
CCCc1ccc(OCc2ccc(C(=O)N/N=C/c3ccc(Cl)cc3O)o2)cc1 [Compound 5]

>  <pEC50>
5.04

$$$$

---

target: VA207 binding to the Lewis antigens
protocolNotes: Saliva-based blocking EIA: VA207 VLP binding to Lewis antigens
conditionParameters: VA207 VLP binding to Lewis antigen; read-out: EC50 rVA207 Le
pEC50: −log10 of the molar value.
Examples of molecules with documented pEC50 follow.
reportedProperty: pEC50

>  <molecule>
CCOC(=O)C1=C(C)OC(N)=C(C#N)C1c1ccc(OCc2ccc(C)cc2)c([N+](=O)[O-])c1 (stereo not drawn)

>  <result>
< 4.00

$$$$
>  <molecule>
CCCc1ccc(OCc2ccc(C(=O)N/N=C/c3ccc(Cl)cc3O)o2)cc1

>  <result>
< 4.00

$$$$
>  <molecule>
CCC[n+]1cc(-c2ccccc2)nc(N2CCOCC2)n1.[I-]

>  <result>
< 4.00

$$$$
>  <molecule>
CCCCc1ccc(NC(=O)c2ccc(C)cc2)cc1

>  <result>
< 4.00

$$$$
>  <molecule>
Cc1ccc(NC(=O)CC(c2ccccc2)c2ccccc2)cc1C

>  <result>
< 4.00

$$$$
>  <molecule>
O=CC(=O)c1ccc2c(c1)Cc1cc(C(=O)C=O)ccc1-2

>  <result>
< 4.00

$$$$
